- System: HCT-116
- Test protocol: Reversal of 5-FU resistance against human HCT-116 cells overexpressing DPD assessed as inhibition of cell proliferation measured after 72 hrs in presence of 5-FU by MTT assay
- Format: functional, cell-based
- Test parameters: HCT-116, 72 h
// bucketize EC50: lowest (below 6 µM), middle (6 µM to below 90 µM), highest (90 µM or more)

Compound: O=c1[nH]cc(F)c(=O)[nH]1 [FLUOROURACIL]
Class: highest
//
Compound: O=C(Nc1cc(Cl)nc(Cl)c1)Nc1cc(Cl)nc(Cl)c1
Class: lowest
//
Compound: O=C(Nc1cc(Cl)cc(Cl)c1)Nc1cc(Cl)nc(Cl)c1
Class: middle
//
Compound: Cc1cc(NC(=O)Nc2cc(Cl)nc(Cl)c2)cc(C)n1
Class: middle
//
Compound: COc1ccc(-c2ccc3cc(NC(=O)Nc4cc(Cl)nc(Cl)c4)nn3c2)cc1
Class: lowest
//
Compound: O=C(Nc1cc(Cl)nc(Cl)c1)Nc1cc(Cl)nc(OC2CCCC2)c1
Class: lowest
//
Compound: O=C(Nc1cc(Cl)nc(Cl)c1)Nc1cc2ccccn2n1
Class: lowest
//
Compound: CN1CCN(C(=O)Nc2cc(Cl)nc(Cl)c2)CC1
Class: highest
//
Compound: Cc1cc(NC(=O)Nc2cc(Cl)nc(Cl)c2)n(C)n1
Class: highest
//
Compound: Cc1nn(C)c2nc(NNC(=O)Nc3cc(Cl)nc(Cl)c3)cc(C(C)C)c12
Class: middle
//
Compound: O=C(NNc1nc(Nc2ccccc2)nc(N2CCCC2)n1)Nc1cc(Cl)nc(Cl)c1
Class: middle
//
Compound: COc1c(Cl)cc(NC(=O)Nc2cc(Cl)nc(Cl)c2)cc1Cl
Class: middle
//
Compound: O=C(NNc1nc(N2CCOCC2)c2ccn(C3CC3)c2n1)Nc1cc(Cl)nc(Cl)c1
Class: highest
//
Compound: CN(C)c1nc(NNC(=O)Nc2cc(Cl)nc(Cl)c2)nc2c1ccn2C
Class: middle
//
Compound: Cn1ccc2c(-c3ccccc3)nc(NNC(=O)Nc3cc(Cl)nc(Cl)c3)nc21
Class: highest

The measurements presented in this section are drawn from ChEMBL document CHEMBL4842358.
